src = PubChem BioAssay (NCI)

test system: RXF 393 renal; assay: NCI-60 one-dose screen, 48 h (100 = growth as untreated, 0 = no growth, -100 = all killed); settings: 10 µM unless noted
Compounds without any hit were thinned out: in the full panel of roughly 83,000, 20% have a hit.
Assay Endpoint: growth (%)
Answers are plain numbers, in %.

These recorded examples may help you get a feel for the data.
[[record]]
molecule = "CC(C)(C)c1ccc2oc(=O)n(SC(Cl)(Cl)Cl)c2c1"
assay_endpoint = "growth"
experimental_value = 110

[[record]]
molecule = "CC(=O)O[C@@H]1C[C@]2(C)[C@H]3[C@H](O)C[C@@H]4C5=CC(C)(C)CC[C@]5(C)CC[C@@]4(C)[C@]3(C)CC[C@H]2C(C)(C)[C@H]1O"
assay_endpoint = "growth"
experimental_value = 111

[[record]]
molecule = "CCCCCCN1C(=O)CN=C1Nc1ccc2cc3ccc(NC4=NCC(=O)N4CCCCCC)cc3nc2c1"
assay_endpoint = "growth"
experimental_value = 11.6


// each molecule listed below needs its growth
1. C#C[C@@]1(O)[C@@H](CO)O[C@@H](n2ccc3c(N)ncnc32)[C@@H]1O
2. O=C(/C(=C/c1ccc([N+](=O)[O-])cc1)SCc1ccccc1)c1ccc(Cl)cc1
3. Cc1nnc(/N=C2\NC(=O)/C(=C/c3ccsc3)S2)s1

1. -33.6
2. 67.3
3. 99.8

----------
tested on: LOX IMVI melanoma; assay: NCI-60 one-dose screen, 48 h; details: 10 µM unless noted
About 83,000 compounds went through this panel and 20% of them were active in at least one assay; those are over-represented in the sample as a whole. Activity calls are given as the source filed them. How the source made its calls: active means growth percent below 10; inactive means the rest.
Outcome (select one): active, inactive

These recorded examples may help you get a feel for the data.
[[record]]
molecule = "CCCCCCCc1n(Cc2ccc3ccccc3c2)c2ccccc2[n+]1Cc1ccc2ccccc2c1"
class = "active"

[[record]]
molecule = "N#Cc1ccc(Oc2ccc3ccc(=O)oc3c2)cc1"
class = "inactive"

[[record]]
molecule = "c1cc(CNC23CC4CC(CC(C4)C2)C3)cc(C[N+](Cc2cccc(CNC34CC5CC(CC(C5)C3)C4)c2)(Cc2cccc(CNC34CC5CC(CC(C5)C3)C4)c2)Cc2cccc(CNC34CC5CC(CC(C5)C3)C4)c2)c1 (configuration not stated)"
class = "active"


Short answer needed: outcome of this test for OCCNc1nc(NCCO)nc(Nc2ccc(C3=NN(c4cc(Cl)cc(Cl)c4)C(c4ccc(C(F)(F)F)cc4)C3)cc2)n1 (configuration not stated) ?
active

Short answer needed: outcome of this test for COc1ccc(Cc2nc(C#N)c(N3CCN(c4ccc(F)cc4)CC3)o2)cc1 ?
inactive

Short answer needed: outcome of this test for COC(=O)/C=C/c1cc(OC(C)=O)c2c(c1)C(C(=O)OC)C(c1ccc(OC(C)=O)c(OC(C)=O)c1)O2 (configuration not stated) ?
inactive

Short answer needed: outcome of this test for COC(=O)CCc1n(Cc2ccc3ccccc3c2)c2ccccc2[n+]1Cc1ccc2ccccc2c1 ?
active

Short answer needed: outcome of this test for COc1ccc(NC(=O)Nc2ccc(Nc3nc(C)cc(Nc4ccc(C)cc4)n3)cc2)cc1 ?
active

----------
tested on: NCI/ADR-RES ovarian; assay: NCI-60 one-dose screen, 48 h (100 = growth as untreated, 0 = no growth, -100 = all killed); details: 10 µM unless noted
About 83,000 compounds went through this panel and 20% of them were active in at least one assay; those are over-represented in the sample as a whole.
For each record, write down the corresponding growth.
One number for each entry, in %.

[[record]]
compound = "CC(/C=C/c1ccccc1)=N/NC(=O)c1ccncc1"
measured_on = "NCI/ADR-RES ovarian"
unit_abbrev = "%"
experimental_value = 107

[[record]]
compound = "CCOC(=O)NC(Cc1ccccc1)c1ccccc1 (stereo not given)"
measured_on = "NCI/ADR-RES ovarian"
unit_abbrev = "%"
experimental_value = 98.2

[[record]]
compound = "O=C(O)c1cn(C2CC2)c2cc(N3CCN(Cc4nnc(Nc5ccccc5)o4)CC3)c(F)cc2c1=O"
measured_on = "NCI/ADR-RES ovarian"
unit_abbrev = "%"
experimental_value = 107

[[record]]
compound = "Cc1nnc(/N=C2\\NC(=O)/C(=C/c3ccsc3)S2)s1"
measured_on = "NCI/ADR-RES ovarian"
unit_abbrev = "%"
experimental_value = 94.8


Requested field: growth. Item: O=C1[C@@H](OS(=O)(=O)CC(F)(F)F)[C@H](c2ccc(F)cn2)N1c1cc2c3ccccc3ccc2c2ccccc12
72.2

----------
tested on: SF-539 CNS; test: NCI-60 one-dose screen, 48 h (100 = growth as untreated, 0 = no growth, -100 = all killed); conditions: 10 µM unless noted
The panel holds about 83,000 compounds, 20% with a hit somewhere; the sample as a whole holds those more often.
Assay Endpoint: growth (%)
Answers are plain numbers, in %.

[[record]]
compound = "Cc1cccc(NC(=O)c2sc3nc4c(cc3c2N)CN(Cc2ccccc2)CC4)c1C"
assay_endpoint = "growth"
experimental_value = 19.8

[[record]]
compound = "COc1cc(C2=NN(C=O)C(c3cccc(Nc4ccnc5cc(C(F)(F)F)ccc45)c3)C2)cc(OC)c1OC (centres undefined)"
assay_endpoint = "growth"
experimental_value = 77

[[record]]
compound = "c1ccc(-c2n(Cc3ccc4ccccc4n3)cc[n+]2Cc2ccc3ccccc3n2)cc1"
assay_endpoint = "growth"
experimental_value = 37.2


// each compound listed below needs its growth
1. COc1ccccc1Nc1nnc(-c2ccc(Cl)cc2)o1
2. Cc1c(Cl)cccc1NC(=O)c1sc2nc3c(cc2c1N)CCCCC3

1: 57.1; 2: 13.9

// each compound listed below needs its growth
1. Nc1c(C(=O)Nc2ccccc2Cl)sc2nc3c(cc12)CN(Cc1ccccc1)CC3
2. COc1ccc(-c2nnc(N3CCN(C(=O)CN4CCN(c5ccc(OC)cc5)CC4)CC3)nc2-c2ccc(OC)cc2)cc1
3. CN(C)C1=NCCN1
4. COc1cc2cc(c1Cl)N(C)C(=O)C[C@H](OC(=O)[C@H](C)N(C)C(=O)CCS)C[C@]1(C)O[C@H]1[C@H](C)[C@@H]1C[C@@](O)(NC(=O)O1)[C@H](OC)/C=C/C=C(\C)C2
5. CCOC(=O)c1c(C)nc2c(c1N)/C(=C/c1cccs1)C(=O)N2c1ccc(OC)cc1
6. CCOCCc1c(O)nc(SC)[nH]c1=O
7. C[C@H]1[C@H](C)CC[C@]2(C(=O)OCCCC[P+](c3ccccc3)(c3ccccc3)c3ccccc3)CC[C@]3(C)C(=CC[C@@H]4[C@@]5(C)CC[C@H](OC(=O)C(Cl)Cl)C(C)(C)[C@@H]5CC[C@]43C)[C@H]12
8. O=C(O)c1cc(N=Nc2ccc(-c3ccc(N=Nc4c(S(=O)(=O)O)cc5ccc(Nc6ccccc6)cc5c4O)cc3)cc2)ccc1O

1. 102
2. 32
3. 104
4. -17.1
5. 7.71
6. 93.7
7. -78.8
8. 108

// each compound listed below needs its growth
1. Cc1c(O)c(=O)ccn1-c1nc2ccccc2s1
2. COCCOCCOCc1n(Cc2ccc3ccccc3c2)c2ccccc2[n+]1Cc1ccc2ccccc2c1
3. O=C1C(=O)c2c(nc3ccc(Br)cn23)-c2ccccc21

[102, 37.2, -99.1]

// each compound listed below needs its growth
1. CCCCc1ccc(N=Nc2ccc(OCC[N+](C)(C)C)cc2)cc1
2. CC(=O)Oc1c2c(nc3c1c1ccccc1n3Cc1ccccc1)-c1ccccc1C2
3. CC1CCCN(CCCCCOc2ccc3oc4ccccc4c(=O)c3c2)C1 (centres undefined)

[35.9, 94.5, 77.2]

----------
system: SF-268 CNS; experiment: NCI-60 one-dose screen, 48 h (100 = growth as untreated, 0 = no growth, -100 = all killed); conditions: 10 µM unless noted
The panel holds about 83,000 compounds, 20% with a hit somewhere; the sample as a whole holds those more often.
Assay Endpoint: growth (%)
Numbers only, in %.

These recorded examples may help you get a feel for the data.
[[record]]
compound = "Cc1nc2sc(C(=O)Nc3cccc4ccccc34)c(N)c2cc1C(C)O (stereo not given)"
unit_abbrev = "%"
experimental_value = 51.4

[[record]]
compound = "CC(=O)OCC1OC(OC2C(COC(C)=O)OC(OCCC[S-])C(OC(C)=O)C2OC(C)=O)C(OC(C)=O)C(OC(C)=O)C1OC(C)=O.[Au+].c1ccc(CN2[CH-]N(Cc3ccccc3)C(c3ccccc3)=C2c2ccccc2)cc1 (stereo not given)"
unit_abbrev = "%"
experimental_value = 40.1

[[record]]
compound = "COc1ccc2[nH]c3nc4cnccc4cc3c2c1"
unit_abbrev = "%"
experimental_value = 106

[[record]]
compound = "O=c1[nH]c2ccccc2cc1-c1nc2ccncc2[nH]1"
unit_abbrev = "%"
experimental_value = 96.6

[[record]]
compound = "Nc1c(C(=O)Nc2cccc3ccccc23)sc2nc3c(cc12)CCCCCC3"
unit_abbrev = "%"
experimental_value = 45.6

[[record]]
compound = "CNCc1cccc2c1OCCOCCOCCN(CCN1CCOCC1)S(=O)(=O)c1ccc(cc1)-c1cnc(N)c(n1)C(=O)N2"
unit_abbrev = "%"
experimental_value = 68

[[record]]
compound = "N#CCNc1ccc(C(=O)O)cc1"
unit_abbrev = "%"
experimental_value = 105

[[record]]
compound = "COC1=CC2C=C(C3N(c4ccccc4)NC(=O)[C@@H]4CCCN34)C(=O)NC2C=C1 (stereo not given in full)"
unit_abbrev = "%"
experimental_value = 99.8


// each compound listed below needs its growth
1. Cc1nc2sc(C(=O)Nc3cccc(Cl)c3C)c(N)c2cc1C(C)O (stereo not given)
2. O=C(CCc1nnco1)c1nc2ccc([N+](=O)[O-])cc2[nH]1
3. Nc1ccccc1NC(=O)c1ccc(CSc2nc(N3CCOCC3)c3cccn3n2)cc1
4. O=C1C(=O)c2c(nc3ccc(C(F)(F)F)cn23)-c2ccccc21
5. C=CCn1c(SCC(=O)Nc2ccc(C(=O)/C=C/c3cc(OC)c(OC)c(OC)c3)cc2)nnc1-c1ccc(Cl)cc1
6. CO[C@@]12C=C[C@@]34CCC(=O)N3c3ccccc3[C@@H](O1)C4C2
7. FC(F)(F)c1ccc2c(Nc3cccc(C4CC(c5ccccc5)=NN4c4ccc(Cl)cc4)c3)ccnc2c1 (stereo not given)

1: 47.9; 2: 102; 3: 4.84; 4: -78.7; 5: 19.8; 6: 98.4; 7: 50.8

// each compound listed below needs its growth
1. COc1ccc(OCC(=O)OC(C)C)cc1
2. CCOC(=O)C1=C(C)n2nc(CC#N)c(C#N)c2NC1c1ccc(Cl)cc1 (stereo not given)
3. COc1ccc(-c2cs/c(=N\N=C\c3ccc(O)cc3O)n2/N=C/c2ccc(O)cc2O)cc1
4. CCCCOc1nc2ccc(C)cc2cc1/C=C/C(=O)/C=C/c1ccc2c(c1)OCO2
5. C#Cc1cccc(Nc2ncnc3ccc(NC(=O)c4ccccc4)cc23)c1

1. 92.5
2. 87.3
3. 4.27
4. 75.4
5. 74.7
